# Test system: HPV-16
# experiment description: qPCR sensitivity against HPV-HNSCC tumor samples diluted among 10 ng normal human DNA
# setup conditions: Sample # 2
endpoint label: Threshold of tumor cell numbers for HPV-16 detection

| molecule | measured result |
| --- | --- |
| E6: previously designed (historical) HPV-16 E6 primers and Taqman probe, SEQ ID NO: 7-9, positive control (nucleic acid, Taqman probe, labels not given here) DNA 1: TCAGGACCCACAGGAGCG DNA 2: CCTCACGTCGCAGTAACTGTTG DNA 3: CCCAGAAAGTTACCACAGTTATGCACAGAGCT | 30.0 tumor cells |

Now for another entry.
Answer with the recorded Threshold of tumor cell numbers for HPV-16 detection of BR E1-4: HPV-16 E1 region primer/probe set, SEQ ID NO: 37-39 (nucleic acid, chemistry not given here) DNA 1: ATGCACAATTGGCAGACACTA DNA 2: ACAATCCTTTACAATTTTTGCCTGT DNA 3: TAATGCAAGTGCCTTTCTAAAAAGT only. 150.0 tumor cells
